meta.source: the RepoRT retention time repository (doi:10.1007/s11356-017-9929-x)

PROTOCOL_DETAILS: RP, GL Sciences Inertsil ODS-4, 150 × 2.1 mm, 3 µm, 40 °C, 0.3 mL/min, estimated dead time 1.1 min; A: water + 5 mM ammonium acetate; B: methanol + 5 mM ammonium acetate; gradient (min/%B) 0/5 30/95 50/95
TEST_SETTINGS: stereoisomer not certain
Here, each record is paired with measured LC retention time data.
Write the value in min as a bare number.

Exercise: Quick check: LC retention time of Cc1nc(N(C)C)nc(OC(=O)N(C)C)c1C ?
Solution: 23.4

Exercise: Would you kindly repeat that for Cc1nn(C)c(Oc2ccccc2)c1C=NOCc1ccc(C(=O)OC(C)(C)C)cc1 ?
Solution: 33.5

Exercise: Would you kindly repeat that for Cc1cccc2sc3nncn3c12 ?
Solution: 18.9

Exercise: Would you kindly repeat that for [2H]c1c([2H])c(S(=O)(=O)Nc2cc(C)on2)c([2H])c([2H])c1N ?
Solution: 9.83

Exercise: Would you kindly repeat that for [2H]c1c([2H])c([2H])c2[nH]c(NC(=O)OC)nc2c1[2H] ?
Solution: 17.1

Exercise: Would you kindly repeat that for CNC(=O)C(=NOC)c1ccccc1Oc1ccccc1 ?
Solution: 24.6

Exercise: Would you kindly repeat that for CC#Cc1cc(C)nc(Nc2ccccc2)n1 ?
Solution: 28.1

* * *

PROTOCOL_DETAILS: RP, GL Sciences Inertsil ODS-4, 150 × 2.1 mm, 3 µm, 40 °C, 0.3 mL/min, estimated dead time 1.1 min; A: water + 5 mM ammonium acetate; B: methanol + 5 mM ammonium acetate; gradient (min/%B) 0/5 30/95 50/95
TEST_SETTINGS: stereoisomer not certain
Returns true if the recorded LC retention time is greater than or equal to 20 min, and false otherwise.

Exercise: Is LC retention time at least 20 min? Consider CCCC(=NOCC)C1=C(O)CC(CC(C)SCC)CC1=O (stereo not drawn)
Solution: true

Exercise: Would you kindly repeat that for CC(C)C1(C)N=C(c2nc3ccccc3cc2C(=O)O)NC1=O (stereo not drawn) ?
Solution: false

Exercise: Would you kindly repeat that for CNC(=O)N(C)c1nc2ccccc2s1 ?
Solution: true

New cases:
Exercise: Is LC retention time at least 20 min? Consider CC1=NNC(=O)N(N=Cc2cccnc2)C1
Solution: false

Exercise: Would you kindly repeat that for CSc1nnc(C(C)(C)C)c(=O)n1N ?
Solution: true

* * *

PROTOCOL_DETAILS: RP, GL Sciences Inertsil ODS-4, 150 × 2.1 mm, 3 µm, 40 °C, 0.3 mL/min, estimated dead time 1.1 min; A: water + 5 mM ammonium acetate; B: methanol + 5 mM ammonium acetate; gradient (min/%B) 0/5 30/95 50/95
TEST_SETTINGS: stereoisomer not certain
Here, each record is paired with measured LC retention time data.
Write the value in min as a bare number.

Exercise: Quick check: LC retention time of COCCOc1ccccc1S(=O)(=O)NC(=O)Nc1nc(OC)nc(OC)n1 ?
Solution: 15.5

New cases:
Exercise: Quick check: LC retention time of COC(=O)c1ccccc1S(=O)(=O)NC(=O)N(C)c1nc(C)nc(OC)n1 ?
Solution: 16.9

Exercise: Would you kindly repeat that for CCOC(=O)c1cnn(C)c1S(=O)(=O)NC(=O)Nc1nc(OC)cc(OC)n1 ?
Solution: 18.2

Exercise: Would you kindly repeat that for OC(CCCN1CCCCC1)(c1ccccc1)c1ccccc1 ?
Solution: 23.2
